experiment: Enzyme hydrolysis in plasma/buffer pH 7.4 mixture (80%-20%)
Format: in vitro ADME
applied conditions: 80% plasma/buffer; plasma/buffer pH 7.4 (80%-20%), 37°C; read-out: half-times (T½) in plasma (80%), 37°C
parameter: half-life (min)

Consider the reported half-life for these compounds:
1) CC[C@H](C(=O)OCc1ccccc1)[C@H](COC(=O)c1ccccc1)Cc1cncn1C [benzoyl, benzyl, reference compound]
18
2) CCC(=O)OC[C@H](Cc1cncn1C)[C@H](CC)C(=O)OCc1ccccc1 [propionyl, benzyl, reference compound]
6
3) CC[C@H](C(=O)OCc1ccc(COC(=O)[C@@H](CC)[C@H](COC(=O)c2ccccc2)Cc2cncn2C)cc1)[C@H](COC(=O)c1ccccc1)Cc1cncn1C [Example 14]
94
4) CC[C@H](C(=O)OCCCCCOC(=O)[C@@H](CC)[C@H](COC(=O)C1CC1)Cc1cncn1C)[C@H](COC(=O)C1CC1)Cc1cncn1C [Example 21]
13

(a) CCCCC(=O)OC[C@H](Cc1cncn1C)[C@H](CC)C(=O)OCc1ccccc1 [valeryl, benzyl, reference compound]
(b) CC[C@H](C(=O)OCc1ccc(COC(=O)[C@@H](CC)[C@H](COC(=O)C2CC2)Cc2cncn2C)cc1)[C@H](COC(=O)C1CC1)Cc1cncn1C [Example 13]
For a and b , which recorded half-life is lower? Your choice should be expressed through its label. a
(a: 9 min, b: 14 min)
